Read-out: Cytochrome P450 3A4 (Homo sapiens) (UniProt P08684)
Sequence (P08684 whole entry, looked up): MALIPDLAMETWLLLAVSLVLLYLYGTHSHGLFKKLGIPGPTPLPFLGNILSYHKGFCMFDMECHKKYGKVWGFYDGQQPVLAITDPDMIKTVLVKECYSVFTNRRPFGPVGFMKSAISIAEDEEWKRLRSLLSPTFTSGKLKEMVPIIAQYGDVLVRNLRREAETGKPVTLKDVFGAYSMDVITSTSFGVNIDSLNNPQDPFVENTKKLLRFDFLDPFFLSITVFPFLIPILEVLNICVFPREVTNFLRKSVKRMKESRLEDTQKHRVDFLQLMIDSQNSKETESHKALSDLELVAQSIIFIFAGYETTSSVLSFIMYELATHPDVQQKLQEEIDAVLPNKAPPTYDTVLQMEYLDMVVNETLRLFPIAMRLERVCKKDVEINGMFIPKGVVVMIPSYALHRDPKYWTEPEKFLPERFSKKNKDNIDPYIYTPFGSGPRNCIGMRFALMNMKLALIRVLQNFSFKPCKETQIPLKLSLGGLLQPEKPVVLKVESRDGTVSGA
Measurement notes: LTEA_HepaRG_CYP3A4: Life Technologies and Expression Analysis (LTEA) Assay for CYP3A4 using HepaRG (AID 2283487)
Test conditions: mRNA level, 48 h; actives raise or lower the signal
Experimental: LTEA_HepaRG is a cell based, multiplexed-readout assay that uses HepaRG, a human liver cell line, with measurements taken at 48 hours after chemical dosing on a 96-well plate.LTEA_HepaRG_CYP3A4 is one of 102 assay component(s) measured in the LTEA HepaRG cell culture assay. It is a marker of NR mediated metabolism.Data from the assay component LTEA_HepaRG_CYP3A4 was analyzed into 1 endpoint. […]
Active and inactive are the calls of the source. How the source made its calls: active means hit-call score of the fitted dose curve at least 0.9, where 1 is the maximum; inactive means score below 0.9.
Value kind: AC50

{"Molecule": "CCC(C)(c1ccc(O)cc1)c1ccc(O)cc1", "AC50": "inactive"}
{"Molecule": "CN(C)c1nc(=O)n(C2CCCCC2)c(=O)n1C", "AC50": "50 µM (active)"}
{"Molecule": "O=S(=O)(O)C(F)(F)C(F)(F)C(F)(F)C(F)(F)F", "AC50": "inactive"}
{"Molecule": "Cc1ccccc1O", "AC50": "inactive"}
{"Molecule": "Cc1ccccc1CO[C@@H]1C[C@@]2(C(C)C)CC[C@]1(C)O2", "AC50": "23.1 µM (active)"}
{"Molecule": "CCC(=O)O[C@H]1CC[C@H]2[C@@H]3CCC4=CC(=O)CC[C@]4(C)[C@H]3CC[C@]12C", "AC50": "inactive"}
{"Molecule": "CC(C)C(=O)OCC(C)(C)C(OC(=O)C(C)C)C(C)C (stereo unspecified)", "AC50": "inactive"}
{"Molecule": "ClC1=C(Cl)[C@]2(Cl)[C@@H]3[C@@H](Cl)[C@H]4O[C@H]4[C@@H]3C1(Cl)C2(Cl)Cl", "AC50": "1.35 µM (active)"}
{"Molecule": "C[C@]12CCC(=O)C=C1CC[C@@H]1[C@@H]2CC[C@@]2(C)[C@H]1CC[C@]2(C)O", "AC50": "inactive"}
{"Molecule": "CCOP(=S)(OCC)SCSC(C)(C)C", "AC50": "inactive"}

Request the reported AC50 associated with Clc1ccc(C(c2ccccc2Cl)C(Cl)(Cl)Cl)cc1 (stereo unspecified)
2.46 µM (active)

State the recorded AC50 for this entry: "O=C(O)C(F)(F)C(F)(F)C(F)(F)C(F)(F)C(F)(F)C(F)(F)C(F)(F)C(F)(F)F"
81.7 µM (active)

Which AC50 value belongs to "Cc1cc(-c2ccc(N)c(C)c2)ccc1N" ?
inactive

Quick one: AC50 for "CCC(C)(CC)c1cc(NC(=O)c2c(OC)cccc2OC)on1" ?
0.541 µM (active)

Which AC50 is listed for "CC(c1ccc(O)cc1)(c1ccc(O)cc1)c1ccc(O)cc1" ?
23.6 µM (active)

// returns reported AC50 for input "CCSC(=O)N(CC)C1CCCCC1"
inactive

---

Read-out: Peroxisomal acyl-coenzyme A oxidase 1 (ACOX1) gene, ACOX1 (gene 51)
Measurement notes: LTEA_HepaRG_ACOX1: Life Technologies and Expression Analysis (LTEA) Assay for Peroxisomal acyl-coenzyme A oxidase 1 (ACOX1) gene using HepaRG (AID 2283467)
Test conditions: mRNA level, 48 h; actives raise or lower the signal
Calls of active or inactive are those of the source. The calls were made as follows: active = hit-call score of the fitted dose curve at least 0.9, where 1 is the maximum; inactive = score below 0.9.
Value kind: AC50

Completed entries (count: 10):
{"Molecule": "Cc1ccccc1[N+](=O)[O-]", "AC50": "inactive"}
{"Molecule": "CCCCCCCCCc1ccc(O)cc1", "AC50": "inactive"}
{"Molecule": "c1ccc(-c2ccccc2)cc1", "AC50": "inactive"}
{"Molecule": "ClC1=C(Cl)[C@]2(Cl)[C@@H]3[C@H]4C[C@H]([C@@H]5O[C@H]45)[C@@H]3[C@@]1(Cl)C2(Cl)Cl", "AC50": "inactive"}
{"Molecule": "CN(C)CCO", "AC50": "inactive"}
{"Molecule": "Oc1ccc(Cl)cc1Cl", "AC50": "inactive"}
{"Molecule": "O=NN(c1ccccc1)c1ccccc1", "AC50": "inactive"}
{"Molecule": "c1cc2ccc3cccc4ccc(c1)c2c34", "AC50": "inactive"}
{"Molecule": "CCCCCCCCOC(=O)c1ccccc1C(=O)OCCCCCCCC", "AC50": "inactive"}
{"Molecule": "NS(=O)(=O)C(F)(F)C(F)(F)C(F)(F)C(F)(F)C(F)(F)C(F)(F)C(F)(F)C(F)(F)F", "AC50": "14.9 µM (active)"}

Consider the molecule shown here: "C[C@]12CCC(=O)C=C1CC[C@@H]1[C@@H]2CC[C@]2(C)C(=O)CC[C@@H]12" What is its recorded AC50?
inactive

Please give the measured AC50 for this molecule: "ClC(Cl)=C(c1ccc(Cl)cc1)c1ccc(Cl)cc1"
inactive

Can you look up the measured AC50 of "Cc1cc(O)ccc1Cl" for me?
inactive

---

Read-out: Monocyte Chemoattractant Protein-1 (MCP1), CCL2 (gene 6347)
Measurement notes: BSK_SAg_MCP1: BioMAP Diversity Plus: SAg Assay for Monocyte Chemoattractant Protein-1 (MCP1) Biomarker Activity (AID 2283090)
Test conditions: primary human HUVEC with PBMC; actives raise or lower the signal
Activity calls are given as the source filed them. Rule for the calls: active = hit-call score of the fitted dose curve at least 0.9, where 1 is the maximum; inactive = score below 0.9.
Select the matching outcome among 1 (yes) (active), 0 (no) (inactive)

Illustrative cases are given below, each with its answer.
{"Smi": "c1ccc(-c2ccccc2)cc1", "Cat": "0 (no)"}
{"Smi": "ClC1=C(Cl)[C@]2(Cl)[C@@H]3[C@@H](Cl)[C@H]4O[C@H]4[C@@H]3C1(Cl)C2(Cl)Cl", "Cat": "0 (no)"}
{"Smi": "CN(C)c1nc(=O)n(C2CCCCC2)c(=O)n1C", "Cat": "0 (no)"}
{"Smi": "ClC1=C(Cl)[C@]2(Cl)[C@@H]3[C@H]4C[C@H]([C@@H]5O[C@H]45)[C@@H]3[C@@]1(Cl)C2(Cl)Cl", "Cat": "0 (no)"}
{"Smi": "CCSC(=O)N(CC)C1CCCCC1", "Cat": "0 (no)"}

Query: recorded result category for "CCC(C)(c1ccc(O)cc1)c1ccc(O)cc1" in this test
1 (yes)

Which outcome was assigned to "C=CC(N)=O" in this test?
0 (no)

Per the records of this test, what outcome belongs to "ClC1=C(Cl)[C@]2(Cl)[C@@H]3[C@@H]4C[C@@H]([C@H]5O[C@@H]45)[C@@H]3[C@@]1(Cl)C2(Cl)Cl" ?
0 (no)

Hi, sorry to bother you, what did the test record for "CC(C)(O)C(=O)Nc1ccc([N+](=O)[O-])c(C(F)(F)F)c1" ?
0 (no)

# fetch the recorded call for "CO/C=C(/C(=O)OC)c1ccccc1COc1cccc(C(F)(F)F)n1" here
1 (yes)

Write down the call the test reported for this molecule. Item: "Cc1cccc(C)c1N"
0 (no)

---

Read-out: CYP3A5 (gene 1577)
Measurement notes: LTEA_HepaRG_CYP3A5: Life Technologies and Expression Analysis (LTEA) Assay for CYP3A5 using HepaRG (AID 2283493)
Test conditions: mRNA level, 48 h; actives raise or lower the signal
Active and inactive are the calls of the source. The calls were made as follows: active = hit-call score of the fitted dose curve at least 0.9, where 1 is the maximum; inactive = score below 0.9.
Valid outcomes are listed here; reply with one: True for active, False for inactive

// below: answered compounds
{"Smi": "CCOP(=S)(OCC)SCSC(C)(C)C", "Cat": "True"}
{"Smi": "CCCCCCCCOC(=O)c1ccccc1C(=O)OCCCCCCCC", "Cat": "False"}
{"Smi": "c1cc2ccc3cccc4ccc(c1)c2c34", "Cat": "False"}

I would be grateful if you could indicate the recorded call for "O=C(NC(=O)c1cc(F)c(F)cc1Cl)Nc1cc(F)ccc1N1CCC(C(=O)O)CC1" .
False

Field: outcome | Entry: "Nc1ccc(-c2ccc(N)cc2)cc1"
False

What outcome does the record of this test show for "O=S(=O)(O)C(F)(F)C(F)(F)C(F)(F)C(F)(F)F" ?
False

---

Read-out: Transforming Growth Factor (TGFA), TGFA (gene 7039)
Measurement notes: LTEA_HepaRG_TGFA: Life Technologies and Expression Analysis (LTEA) Assay for Transforming Growth Factor (TGFA) using HepaRG (AID 2283532)
Test conditions: mRNA level, 48 h; actives raise or lower the signal
Calls of active or inactive are those of the source. The calls were made as follows: active = hit-call score of the fitted dose curve at least 0.9, where 1 is the maximum; inactive = score below 0.9.
One label from this list, please: class 1 = active, class 0 = inactive

{"Smi": "CCOP(=S)(OCC)SCSC(C)(C)C", "Cat": "class 0"}
{"Smi": "Cc1cccc([N+](=O)[O-])c1", "Cat": "class 0"}
{"Smi": "NS(=O)(=O)C(F)(F)C(F)(F)C(F)(F)C(F)(F)C(F)(F)C(F)(F)C(F)(F)C(F)(F)F", "Cat": "class 1"}

Look up the recorded call for "C[C@]12CCC(=O)C=C1CC[C@@H]1[C@@H]2CC[C@]2(C)C(=O)CC[C@@H]12" in this test.
class 1

Please let me know the test result on file for "CC(C)(c1ccccc1)c1ccc(O)cc1" .
class 0

Query: recorded result category for "O=C(O)C(F)(F)C(F)(F)C(F)(F)C(F)(F)C(F)(F)F" in this test
class 0

Where these numbers come from: PubChem BioAssay (EPA / NIEHS)
